# EXPERIMENTAL SYSTEM: T1, NHERF1 PDZ1 (1–120) (human, UniProt O14745 1-120)
# T1 construct: the methods describe PDZ1 (11-120) and PDZ1 (1-140) but no 1-120 construct, so 1-120 may be a misprint of 11-120; Host and purification are the general statement of the methods; also called WT PDZ1; source: E. coli BL21 (DE3), purified (Ni-NTA-agarose)
# T1 sequence (looked up): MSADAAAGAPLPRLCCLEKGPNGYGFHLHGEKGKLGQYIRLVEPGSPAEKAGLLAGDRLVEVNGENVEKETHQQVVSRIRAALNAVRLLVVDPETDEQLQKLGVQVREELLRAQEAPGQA
# ASSAY SUMMARY: ITC; 25°C; 10 mM Hepes (pH 7.5), 10 mM NaCl, 0.5 mM EDTA, 0.5 mM beta-mercaptoethanol; 25 uM PDZ protein in the cell, NPT2A (200–250 uM) titrated in 19 injections of 2 ul
# RUN PARAMETERS: both partners purified
PROPERTY MEASURED: pKd
Give bare numbers, as −log10 of the molar value.

*Q* Which pKd is reported for this binder? ELPPATPSPRLALPAHHNATRL (type II sodium-dependent phosphate co-transporter (NPT2A, SLC34A1), 22-residue carboxy-terminal fragment; Kept apart from m1 for that reason; also called ligand NPT2A; source: synthetic peptide) [NPT2A peptide (ligand titrated in ITC)]
*A* 5.51
